// values below are reported MIC
# System: Escherichia coli
# measurementProtocol: Broth microdilution MIC (Example 6)
# Assay type: cell-based
# studyConditions: Escherichia coli, E. coli MMX 5755; ESBL; read-out: MIC
measuredParameter: MIC (µg/mL)

{"molecule": "CC(S)C(C)S.[Bi] (stereo not drawn)", "sign": "=", "valueMeasured": 2}
{"molecule": "CC(C)(O/N=C(\\C(=O)N[C@@H]1C(=O)N2C(C(=O)[O-])=C(C[n+]3ccccc3)CS[C@H]12)c1csc(N)n1)C(=O)O", "sign": ">", "valueMeasured": 64}
{"molecule": "OCC(S)CS.[Bi] (stereo not drawn)", "sign": "=", "valueMeasured": 4}

###

// values below are reported MIC
# System: Acinetobacter baumannii
# measurementProtocol: Broth microdilution MIC (Example 6)
# Assay type: cell-based
# studyConditions: Acinetobacter baumannii, A. baumannii isolate CDC 311, β-lactamase type OXA; read-out: MIC

{"molecule": "NCC[C@H](O)C(=O)N[C@@H]1C[C@H](N)[C@@H](O[C@H]2O[C@H](CN)[C@@H](O)[C@H](O)[C@H]2O)[C@H](O)[C@H]1O[C@H]1O[C@H](CO)[C@@H](O)[C@H](N)[C@H]1O", "MIC": "> 64 µg/mL"}
{"molecule": "CC(C)(O/N=C(\\C(=O)N[C@@H]1C(=O)N2C(C(=O)[O-])=C(C[n+]3ccccc3)CS[C@H]12)c1csc(N)n1)C(=O)O", "MIC": "> 64 µg/mL"}
{"molecule": "C[C@@H](O)[C@H]1C(=O)N2C(C(=O)O)=C(S[C@@H]3CN[C@H](C(=O)N(C)C)C3)[C@H](C)[C@H]12", "MIC": "> 8 µg/mL"}
{"molecule": "C[C@H]1COc2c(N3CCN(C)CC3)c(F)cc3c(=O)c(C(=O)O)cn1c23", "MIC": "2 µg/mL"}

###

# Tested on: Pseudomonas aeruginosa
# measurementProtocol: Broth microdilution MIC (Example 6)
# Format: cell-based
# studyConditions: Pseudomonas aeruginosa, P. aeruginosa isolate CDC 231, β-lactamase type KPC/OXA; read-out: MIC
measuredParameter: MIC

{"molecule": "C[C@@H](O)[C@H]1C(=O)N2C(C(=O)O)=C(S[C@@H]3CN[C@H](C(=O)N(C)C)C3)[C@H](C)[C@H]12 [Meropenem]", "measuredParameter": "MIC", "valueMeasured": "> 8 µg/mL"}
{"molecule": "CC(C)(O/N=C(\\C(=O)N[C@@H]1C(=O)N2C(C(=O)[O-])=C(C[n+]3ccccc3)CS[C@H]12)c1csc(N)n1)C(=O)O [Ceftazidime]", "measuredParameter": "MIC", "valueMeasured": "> 64 µg/mL"}
{"molecule": "C[C@H]1COc2c(N3CCN(C)CC3)c(F)cc3c(=O)c(C(=O)O)cn1c23 [Levofloxacin]", "measuredParameter": "MIC", "valueMeasured": "> 8 µg/mL"}
{"molecule": "NCC[C@H](O)C(=O)N[C@@H]1C[C@H](N)[C@@H](O[C@H]2O[C@H](CN)[C@@H](O)[C@H](O)[C@H]2O)[C@H](O)[C@H]1O[C@H]1O[C@H](CO)[C@@H](O)[C@H](N)[C@H]1O [Amikacin]", "measuredParameter": "MIC", "valueMeasured": "8 µg/mL"}

###

# Tested on: E. faecium
# measurementProtocol: Broth microdilution MIC (Example 5)
# Format: cell-based
# studyConditions: E. faecium MMX 485; VRE vanA

{"molecule": "C[C@@H](O)[C@H]1C(=O)N2C(C(=O)O)=C(S[C@@H]3CN[C@H](C(=O)N(C)C)C3)[C@H](C)[C@H]12", "MIC": ">64 µg/mL"}
{"molecule": "CN[C@H](CC(C)C)C(=O)N[C@H]1C(=O)N[C@@H](CC(N)=O)C(=O)N[C@H]2C(=O)N[C@H]3C(=O)N[C@H](C(=O)N[C@H](C(=O)O)c4cc(O)cc(O)c4-c4cc3ccc4O)[C@H](O)c3ccc(c(Cl)c3)Oc3cc2cc(c3O[C@@H]2O[C@H](CO)[C@@H](O)[C@H](O)[C@H]2O[C@H]2C[C@](C)(N)[C@H](O)[C@H](C)O2)Oc2ccc(cc2Cl)[C@H]1O", "MIC": ">64 µg/mL"}
